// data source = patent US9758505B2

Reported values of IC50 for individual entries
Biological target: human TDO2 (Homo sapiens (Human))
Sequence (P48775 whole entry): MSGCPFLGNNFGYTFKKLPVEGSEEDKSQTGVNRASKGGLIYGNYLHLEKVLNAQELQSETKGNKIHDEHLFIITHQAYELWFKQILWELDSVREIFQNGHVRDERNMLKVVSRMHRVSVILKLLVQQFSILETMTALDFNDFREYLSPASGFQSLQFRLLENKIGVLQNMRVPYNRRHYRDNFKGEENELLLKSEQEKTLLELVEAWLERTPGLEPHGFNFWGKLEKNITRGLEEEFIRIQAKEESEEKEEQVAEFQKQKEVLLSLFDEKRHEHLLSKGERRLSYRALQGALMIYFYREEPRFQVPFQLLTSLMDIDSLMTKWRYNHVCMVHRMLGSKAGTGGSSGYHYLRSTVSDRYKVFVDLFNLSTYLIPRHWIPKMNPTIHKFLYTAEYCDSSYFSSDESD
Assay: Cellular assay for TDO2 activity, A172 cells naturally expressing hTDO2
Assay type: cell-based
Conditions: human glioblastoma A172 cells, overnight incubation, kynurenine in supernatant
Where a name gives a salt, the structure may show the parent alone.
Report the value in nM with no unit label.

Q) Could you share what IC50 was measured for `CS(=O)(=O)NC1CCN(c2ccc(-c3c[nH]c4ccccc34)cn2)CC1` , tested on human TDO2 (Homo sapiens (Human))?
A) 1200

Q) Could you share what IC50 was measured for `CNC(=O)Nc1ccc(-c2c[nH]c3cc(F)ccc23)cn1` , tested on human TDO2 (Homo sapiens (Human))?
A) 440

Q) Could you share what IC50 was measured for `O=C1CNCCN1c1ccc(-c2c[nH]c3cc(F)ccc23)cn1` , tested on human TDO2 (Homo sapiens (Human))?
A) 1500

Q) Could you share what IC50 was measured for `COCCS(=O)(=O)NC1CCN(c2ccc(-c3c[nH]c4cc(F)ccc34)cn2)CC1` , tested on human TDO2 (Homo sapiens (Human))?
A) 1400

Q) Could you share what IC50 was measured for `CN(c1ccc(-c2c[nH]c3cc(F)ccc23)cn1)S(C)(=O)=O` , tested on human TDO2 (Homo sapiens (Human))?
A) 420

Q) Could you share what IC50 was measured for NS(=O)(=O)c1ccc(-c2c[nH]c3cc(F)ccc23)cn1 [Example 80, hydrochloride] , tested on human TDO2 (Homo sapiens (Human))?
A) 310

Q) Could you share what IC50 was measured for `NS(=O)(=O)CCCNc1ccc(-c2c[nH]c3cc(F)ccc23)cn1` , tested on human TDO2 (Homo sapiens (Human))?
A) 490

Q) Could you share what IC50 was measured for `CNc1ccc(-c2c[nH]c3cc(F)ccc23)cn1` , tested on human TDO2 (Homo sapiens (Human))?
A) 1600

Q) Could you share what IC50 was measured for `CS(=O)(=O)NC1CCN(c2ccc(-c3c[nH]c4ccc(F)cc34)cn2)CC1` , tested on human TDO2 (Homo sapiens (Human))?
A) 2000
